Listing of entries alongside the reported Bliss excess.
# Test system: SK-OV-3 (Ovarian Carcinoma)
# Assay summary: Bliss excess, mean over the matrix (fraction); higher = more synergy;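 note: after 72 h of two-drug dosing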

Molecule: CN(CCO)CC[C@H](CSc1ccccc1)Nc1ccc(S(=O)(=O)NC(=O)c2ccc(N3CCC([C@@H](O)c4ccccc4-c4ccc(Cl)cc4)CC3)cc2)cc1S(=O)(=O)C(F)(F)F [AZD4320] + C1CN(CCC1(C(=O)N[C@@H](CCO)C2=CC=C(C=C2)Cl)N)C3=NC=NC4=C3C=CN4 [Capivasertib] (first compound max 1 µM, 7x7, partner max 3 µM)
Bliss excess: -0.0663
--
Molecule: CC1(C)CCC(CN2CCN(c3ccc(C(=O)NS(=O)(=O)c4ccc(NCC5CCOCC5)c([N+](=O)[O-])c4)c(Oc4cnc5[nH]ccc5c4)c3)CC2)=C(c2ccc(Cl)cc2)C1 [Venetoclax] + CCN(CCO)CCCOc1ccc2c(Nc3cc(CC(=O)Nc4cccc(F)c4)[nH]n3)ncnc2c1 [AZD2811] (first compound max 1 µM, 7x7, partner max 1 µM)
Bliss excess: -0.0401
--
Molecule: C[C@@H](c1ccc2nccn2c1)n1nnc2ncc(-c3cnn(C)c3)nc21 [Savolitinib] + Cc1c2c(nn1C)CSCc1cc(n(C)n1)CSc1cc(c3ccccc3c1)OCCCc1c(C(=O)O)n(C)c3c-2c(Cl)ccc13 [AZD5991] (first compound max 1 µM, 7x7, partner max 1 µM)
Bliss excess: -0.0556
--
Molecule: COc1cccc(OCCCN)c1-c1cc(Nc2cnc(C#N)cn2)n[nH]1 [Prexasertib] + CCc1c2c(nc3ccc(O)cc13)-c1cc3c(c(=O)n1C2)COC(=O)[C@]3(O)CC [SN-38] (first compound max 1 µM, 7x7, partner max 0.3 µM)
Bliss excess: -0.0344
--
Molecule: CC1(C)CCC(CN2CCN(c3ccc(C(=O)NS(=O)(=O)c4ccc(NCC5CCOCC5)c([N+](=O)[O-])c4)c(Oc4cnc5[nH]ccc5c4)c3)CC2)=C(c2ccc(Cl)cc2)C1 [Venetoclax] + CS(=O)(=O)CCNCc1ccc(-c2ccc3ncnc(Nc4ccc(OCc5cccc(F)c5)c(Cl)c4)c3c2)o1 [Lapatinib] (first compound max 1 µM, 7x7, partner max 10 µM)
Bliss excess: -0.0032
--
Molecule: CC1(C)CCC(CN2CCN(c3ccc(C(=O)NS(=O)(=O)c4ccc(NCC5CCOCC5)c([N+](=O)[O-])c4)c(Oc4cnc5[nH]ccc5c4)c3)CC2)=C(c2ccc(Cl)cc2)C1 [Venetoclax] + C=CCn1c(=O)c2cnc(Nc3ccc(N4CCN(C)CC4)cc3)nc2n1-c1cccc(C(C)(C)O)n1 [AZD1775] (first compound max 1 µM, partner max 1 µM)
Bliss excess: -0.026

---

# System: MHH-PREB-1 (B-Cell Non-Hodgkin's Lymphoma)
# Assay summary: Bliss excess, mean over the matrix (fraction); higher = more synergy
Parameter measured: Bliss excess

Compound: CN(CCO)CC[C@H](CSc1ccccc1)Nc1ccc(S(=O)(=O)NC(=O)c2ccc(N3CCC([C@@H](O)c4ccccc4-c4ccc(Cl)cc4)CC3)cc2)cc1S(=O)(=O)C(F)(F)F [AZD4320] + C1CN(CCC1(C(=O)N[C@@H](CCO)C2=CC=C(C=C2)Cl)N)C3=NC=NC4=C3C=CN4 [Capivasertib] (first compound max 1 µM, 7x7, partner max 3 µM)
Measured on: MHH-PREB-1 (B-Cell Non-Hodgkin's Lymphoma)
Numeric value: -0.029
//
Compound: COc1cc2ncnc(Nc3ccc(F)c(Cl)c3)c2cc1OCCCN1CCOCC1 [Gefitinib] + CC(C)n1c(=O)n(C)c2cnc3cc(F)c(-c4ccc(OCCCN5CCCCC5)nc4)cc3c21 [AZD1390] (first compound max 10 µM, 7x7, partner max 0.3 µM)
Measured on: MHH-PREB-1 (B-Cell Non-Hodgkin's Lymphoma)
Numeric value: -0.0748
